Test system: 786-0 renal
assay.explanation: NCI-60 one-dose screen, 48 h
experimental.parameters: 10 µM unless noted
Compounds without any hit were thinned out: in the full panel of roughly 83,000, 20% have a hit. Calls of active or inactive are those of the source. How the source made its calls: active means growth percent below 10; inactive means the rest.
Select the correct class. Options are YES for active, NO for inactive and nothing else.

- molecule: "C=C(C)[C@@H]1CC[C@]2(C(=O)N3CCN(C)CC3)CC[C@]3(C)[C@H](CC[C@@H]4[C@@]5(C)C/C(=C/c6ccncc6)C(=O)C(C)(C)[C@@H]5CC[C@]43C)[C@@H]12"
  assay.target: "786-0 renal"
  category.label: "NO"
- molecule: "CC(=O)Oc1ccc(/C=N/NC(N)=S)nc1"
  assay.target: "786-0 renal"
  category.label: "NO"
- molecule: "COc1ccc(C(=O)CSc2nc(-c3cc(OC)ccc3OC)cc(-c3ccc(Cl)cc3)c2C#N)cc1"
  assay.target: "786-0 renal"
  category.label: "NO"

Outcome? C=C1C(=O)O[C@H]2[C@H]1CC/C(COC(=O)NCc1c[nH]c3ccc(F)cc13)=C\CC[C@@]1(C)O[C@@H]21 YES

Outcome? Cn1cc(-c2csc(-c3c[nH]c4ccccc34)n2)c2ccnc(Cl)c21 NO

Outcome? Cc1cc2nc3c4cccc(O)c4n(CCN(C)C)c3nc2cc1C NO
